biological target: Estrogen receptor (Mus musculus) (UniProt O08537+P19785); experiment: Uterotrophic effect in mice at 25 ug; type: functional, tissue-based; conditions: Uterus
Sequence (O08537 whole entry, looked up): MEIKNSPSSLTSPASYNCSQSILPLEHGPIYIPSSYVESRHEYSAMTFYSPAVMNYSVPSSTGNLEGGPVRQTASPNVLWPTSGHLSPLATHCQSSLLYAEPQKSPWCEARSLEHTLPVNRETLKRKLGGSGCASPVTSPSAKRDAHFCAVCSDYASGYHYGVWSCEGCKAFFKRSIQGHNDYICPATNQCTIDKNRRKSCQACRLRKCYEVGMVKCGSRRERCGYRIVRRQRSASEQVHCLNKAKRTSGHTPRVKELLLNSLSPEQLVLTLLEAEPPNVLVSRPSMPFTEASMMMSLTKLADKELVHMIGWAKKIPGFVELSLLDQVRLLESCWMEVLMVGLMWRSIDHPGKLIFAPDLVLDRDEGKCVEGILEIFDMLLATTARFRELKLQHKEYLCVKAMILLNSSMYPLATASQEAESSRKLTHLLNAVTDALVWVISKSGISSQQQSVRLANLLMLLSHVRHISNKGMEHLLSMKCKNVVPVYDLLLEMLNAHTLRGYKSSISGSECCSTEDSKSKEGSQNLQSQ
Sequence (P19785 whole entry, looked up): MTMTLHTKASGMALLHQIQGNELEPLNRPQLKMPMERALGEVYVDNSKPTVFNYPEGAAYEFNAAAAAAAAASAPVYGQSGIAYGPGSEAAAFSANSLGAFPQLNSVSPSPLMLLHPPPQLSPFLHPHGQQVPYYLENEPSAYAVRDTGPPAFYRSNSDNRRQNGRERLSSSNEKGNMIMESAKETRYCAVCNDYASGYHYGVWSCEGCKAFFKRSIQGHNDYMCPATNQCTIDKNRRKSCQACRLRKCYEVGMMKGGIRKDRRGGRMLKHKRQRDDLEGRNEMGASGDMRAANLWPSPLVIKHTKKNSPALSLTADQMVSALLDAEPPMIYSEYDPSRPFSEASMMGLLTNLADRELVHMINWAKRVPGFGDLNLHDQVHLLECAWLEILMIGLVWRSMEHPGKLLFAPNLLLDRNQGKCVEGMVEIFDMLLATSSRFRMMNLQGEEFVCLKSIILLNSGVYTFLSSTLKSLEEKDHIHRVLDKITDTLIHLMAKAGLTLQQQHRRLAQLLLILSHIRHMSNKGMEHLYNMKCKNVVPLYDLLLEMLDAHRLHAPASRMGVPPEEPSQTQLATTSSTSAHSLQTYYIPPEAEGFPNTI
For each entry below, report its Relative uterine weight value.
Give bare numbers.

- compound: "CCN(CC)CCCCCCC1C(c2ccc(O)cc2)=C(C)c2cc(O)ccc21 (configuration not stated)"
  Relative uterine weight: 18.2
- compound: "CC1=C(c2ccc(O)cc2)C(CCCCCCN2CCCCC2)c2ccc(O)cc21 (configuration not stated)"
  Relative uterine weight: 21.4
- compound: "CC1=C(c2ccc(O)cc2)C(CCCCN2CCCC2)c2ccc(O)cc21 (configuration not stated)"
  Relative uterine weight: 6.4
- compound: "CC1=C(c2ccc(O)cc2)C(CCCCCCN2CCCC2)c2ccc(O)cc21 (configuration not stated)"
  Relative uterine weight: 13.9
- compound: "CC1=C(c2ccc(O)cc2)C(CCCCCCN)c2ccc(O)cc21 (configuration not stated)"
  Relative uterine weight: 12.4
- compound: "CC1=C(c2ccc(O)cc2)C(CCCCCCN2CCOCC2)c2ccc(O)cc21 (configuration not stated)"
  Relative uterine weight: 21.8

Could you now consider this next compound?
In: For the compound CC1=C(c2ccc(O)cc2)C(CCCCCCNCc2ccccc2)c2ccc(O)cc21 (configuration not stated) , give its measured Relative uterine weight value.
Out: 23.6
